Tested on: H3255
Test: relative viability (nuclei count vs DMSO), 5 days (fraction); higher = more cells survive
Conditions: first compound 0.02 µM

>  <compound>
CCNC(=O)c1noc(-c2cc(C(C)C)c(O)cc2O)c1-c1ccc(CN2CCOCC2)cc1 [Luminespib] + O=C(c1cc(Cc2n[nH]c(=O)c3ccccc23)ccc1F)N1CCN(C(=O)C2CC2)CC1 [Olaparib] (partner 8 µM)

>  <relative viability>
0.563

$$$$
>  <compound>
CN1CCN(CCOc2cc(OC3CCOCC3)c3c(Nc4c(Cl)ccc5c4OCO5)ncnc3c2)CC1 [Saracatinib] + CC(=O)c1c(C)c2cnc(Nc3ccc(N4CCNCC4)cn3)nc2n(C2CCCC2)c1=O [Palbociclib] (partner 0.5 µM)

>  <relative viability>
0.329

$$$$
>  <compound>
CCNC(=O)c1noc(-c2cc(C(C)C)c(O)cc2O)c1-c1ccc(CN2CCOCC2)cc1 [Luminespib] + Nc1nc2[nH]cc(CCc3ccc(C(=O)N[C@@H](CCC(=O)O)C(=O)O)cc3)c2c(=O)[nH]1 [Pemetrexed] (partner 0.2 µM)

>  <relative viability>
0.529

$$$$
